molecular target: GST-VCB protein complex (Homo sapiens); experiment: Determination of BODIPY FL VH032 (5) binding Kd to GST-VCB protein complex in a TR-FRET binding assay; conditions: 240-min incubation; 2 nM GST-VCB
Reported Property: pKd
One number for each entry, as −log10 of the molar value.

Would you mind telling me what pKd value was observed for CC1=CC(C)=[N+]2C1=Cc1ccc(CCC(=O)NCCOCCOCCOCCOCC(=O)NC(C(=O)N3CC(O)CC3C(=O)NCc3ccc(-c4scnc4C)cc3)C(C)(C)C)n1[B-]2(F)F (stereo not shown) ? 8.53

====

target: GST-VCB protein complex (Homo sapiens); assay: Determination of BODIPY FL VH032 (5) binding Kd to GST-VCB protein complex in a TR-FRET binding assay; conditions: 180-min incubation; 2 nM GST-VCB
Reported Property: Kd

Would you mind telling me what Kd value was observed for CC1=CC(C)=[N+]2C1=Cc1ccc(CCC(=O)NCCOCCOCCOCCOCC(=O)NC(C(=O)N3CC(O)CC3C(=O)NCc3ccc(-c4scnc4C)cc3)C(C)(C)C)n1[B-]2(F)F (stereo not shown) [BODIPY FL VH032 (5)] ? 2.98 nM

====

biological target: GST-VCB protein complex (Homo sapiens, UniProt P40337); assay: Determination of BODIPY FL VH032 (5) binding Kd to GST-VCB protein complex in a TR-FRET binding assay; settings: 90-min incubation; 2 nM GST-VCB, 2 nM Tb-anti-GST
Reported Property: Kd (nM)
Answers are plain numbers, in nM.

Would you mind telling me what Kd value was observed for CC1=CC(C)=[N+]2C1=Cc1ccc(CCC(=O)NCCOCCOCCOCCOCC(=O)NC(C(=O)N3CC(O)CC3C(=O)NCc3ccc(-c4scnc4C)cc3)C(C)(C)C)n1[B-]2(F)F (stereo not shown) ? 3.01

====

target: GST-VCB protein complex (Homo sapiens, UniProt P40337); test: BODIPY FL VH032 (5)-mediated pVHL FP binding assay (competition); settings: 10 nM BODIPY FL VH032 (5), 100 nM GST-VCB, 90-min incubation; read-out: Ki, pVHL FP assay (Nikolovska-Coleska method)
Reported Property: pKi
Numbers only, as −log10 of the molar value.

Record lookup: for GST-VCB protein complex (Homo sapiens, UniProt P40337), what pKi belongs to Cc1ncsc1-c1ccc(CNC(=O)[C@@H]2C[C@@H](O)CN2C(=O)[C@@H](NC(=O)OC(C)(C)C)C(C)(C)C)cc1 [BOC-VH032 (8)] ? 5.10

====

molecular target: GST-VCB protein complex (Homo sapiens, UniProt P40337); assay: Determination of BODIPY FL VH032 (5) binding Kd to GST-VCB protein complex in a TR-FRET binding assay; details: 300-min incubation; 2 nM GST-VCB
Reported Property: pKd
One number for each entry, as −log10 of the molar value.

Would you mind telling me what pKd value was observed for CC1=CC(C)=[N+]2C1=Cc1ccc(CCC(=O)NCCOCCOCCOCCOCC(=O)NC(C(=O)N3CC(O)CC3C(=O)NCc3ccc(-c4scnc4C)cc3)C(C)(C)C)n1[B-]2(F)F (stereo not shown) [BODIPY FL VH032 (5)] ? 8.52

These entries and their values trace back to patent US20240002458A1.
